Data origin, for the record: ChEMBL document CHEMBL4842350

test: Unbound fraction in Beagle dog blood at 100 to 1000 ng/ml by LC-MS/MS-based rapid equilibrium dialysis method; format: ADME, tissue-based, Canis lupus familiaris; conditions: dose 100-1000 ng/ml
measure-name: fraction unbound
Numbers only.

Record COC[C@@H](C)n1c(C2CCOCC2)nc2cnc3cc(-c4c(C)noc4C)c(OC)cc3c21 , field fraction unbound: 0.24

====

molecular target: Bromodomain-containing protein 4 (Homo sapiens, UniProt O60885); assay: Inhibition of BRD4 in human PBMC assessed as reduction in LPS-induced IL-6 secretion incubated for 18 to 24 hrs by MSD assay
Please go through the items and note down their IC50.
Give bare numbers, in nM.

Example entries and their recorded answers appear below.
> print(dat)
                                   compound  reported.result
1  COc1cc2c(cc1-c1c(C)noc1C)ncc1[nH]c(=O)n(CC3CC3)c12              398
2  COc1cc2c(cc1-c1c(C)noc1C)ncc1[nH]c(=O)n(C(C)C3CCOCC3)c12 (racemic)              200
3  COc1cc2c(cc1-c1c(C)noc1C)ncc1[nH]c(=O)n(C3CCNCC3)c12            15800

Quick one: give me IC50 for each item below, same order please.
1. COc1cc2c(cc1-c1c(C)noc1C)ncc1nc(N3CCOCC3)n(CC3CCOCC3)c12
2. COCc1nc2cnc3cc(-c4c(C)noc4C)c(OC)cc3c2n1CC1CCOCC1

Solution:
25.1
398

====

test: AUC(0 to t) in Wistar Han rat at 1 mg/kg, po measured upto 24 hrs by HPLC-MS/MS analysis; type: ADME, organism-based; set-up: route oral, dose 1 mg/kg, time <=24; settings: in vivo
measure-name: AUC(0-t) at 24 h (ng·h/mL)
Numbers only, in ng·h/mL.

Record COC[C@@H](C)n1c(C2CCOCC2)nc2cnc3cc(-c4c(C)noc4C)c(OC)cc3c21 , field AUC(0-t) at 24 h: 467

====

target: Cytochrome P450 2C9 (Homo sapiens)
Sequence (P11712 whole entry): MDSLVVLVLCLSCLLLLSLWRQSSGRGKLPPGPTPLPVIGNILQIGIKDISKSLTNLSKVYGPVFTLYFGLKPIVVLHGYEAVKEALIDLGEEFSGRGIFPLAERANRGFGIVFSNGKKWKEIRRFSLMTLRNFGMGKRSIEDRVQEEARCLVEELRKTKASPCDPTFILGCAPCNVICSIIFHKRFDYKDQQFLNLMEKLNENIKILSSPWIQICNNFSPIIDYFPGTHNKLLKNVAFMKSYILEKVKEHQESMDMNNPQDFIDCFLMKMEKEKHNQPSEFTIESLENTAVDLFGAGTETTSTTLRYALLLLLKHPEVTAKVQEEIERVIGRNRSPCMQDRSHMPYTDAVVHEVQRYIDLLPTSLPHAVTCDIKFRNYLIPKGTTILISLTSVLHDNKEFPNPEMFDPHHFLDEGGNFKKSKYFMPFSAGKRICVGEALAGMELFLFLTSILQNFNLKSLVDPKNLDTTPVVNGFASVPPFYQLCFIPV
Please go through the items and note down their IC50.
Give bare numbers, in µM.

> print(dat)
                               entry.smiles  reported.result
1  COCCNc1nc2cnc3cc(-c4c(C)noc4C)c(OC)cc3c2n1Cc1ccccn1             31.6

Now consider a different molecule.
Record COCCNc1nc2cnc3cc(-c4c(C)noc4C)c(OC)cc3c2n1[C@H](C)c1ccccn1 , field IC50: 7.9

====

molecular target: Cytochrome P450 3A4 (Homo sapiens, UniProt P08684); assay: Inhibition of recombinant human CYP3A4 expressed in Escherichia coli using VR as probe substrate incubated for 15 to 60 mins by fluorometric assay; type: ADME
Sequence (P08684 whole entry): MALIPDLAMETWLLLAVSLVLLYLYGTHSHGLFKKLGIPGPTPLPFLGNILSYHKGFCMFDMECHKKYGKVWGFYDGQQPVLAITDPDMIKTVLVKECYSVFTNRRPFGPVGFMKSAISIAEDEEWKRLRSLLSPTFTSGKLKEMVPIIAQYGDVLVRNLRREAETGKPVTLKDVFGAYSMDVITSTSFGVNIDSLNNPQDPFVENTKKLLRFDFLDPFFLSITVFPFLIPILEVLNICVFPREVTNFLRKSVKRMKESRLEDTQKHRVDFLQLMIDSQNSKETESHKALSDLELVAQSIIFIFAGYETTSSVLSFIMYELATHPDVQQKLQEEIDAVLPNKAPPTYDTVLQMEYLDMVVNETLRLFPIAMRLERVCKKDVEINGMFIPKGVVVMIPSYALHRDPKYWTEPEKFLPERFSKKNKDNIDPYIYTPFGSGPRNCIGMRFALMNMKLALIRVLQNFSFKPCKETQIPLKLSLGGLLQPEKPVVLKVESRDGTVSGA
pIC50: −log10 of the molar value.
measure-name: pIC50

Record COC[C@@H](C)n1c(C2CCOCC2)nc2cnc3cc(-c4c(C)noc4C)c(OC)cc3c21 , field pIC50: < 4.30

====

assay: Clearance in CD1 mouse blood at 1.4 mg/kg/hr, iv measured upto 24 hrs by LC-MS/MS analysis
measure-name: clearance (mL/min/kg)
Numbers only, in mL/min/kg.

Record COC[C@@H](C)n1c(C2CCOCC2)nc2cnc3cc(-c4c(C)noc4C)c(OC)cc3c21 , field clearance: 23

====

test: physchem; settings: FaSSIF, pH 6.5
Description: Solubility of the compound in FaSSIF at pH 6.5 measured after 30 mins by HPLC analysis
measure-name: solubility at 0.5 h (µg/mL)
Answers are plain numbers, in µg/mL.

Record COc1cc2c(cc1-c1c(C)noc1C)ncc1[nH]c(=O)n([C@H](C)c3ccccn3)c12 , field solubility at 0.5 h: 66

====

test: Cmax in Wistar Han rat at 1 mg/kg, po measured upto 24 hrs by HPLC-MS/MS analysis; type: ADME, organism-based; design: route oral, dose 1 mg/kg, time <=24; conditions: in vivo
measure-name: Cmax (ng/mL)
Give bare numbers, in ng/mL.

Record COC[C@@H](C)n1c(C2CCOCC2)nc2cnc3cc(-c4c(C)noc4C)c(OC)cc3c21 , field Cmax: 125

====

settings: dog, hepatocytes, 2 h, 0.5 µM
measure-name: CLint (mL/min/g liver)
Give bare numbers, in mL/min/g liver.

> print(dat)
                               entry.smiles  reported.result
1  COc1cc2c(cc1-c1c(C)noc1C)ncc1[nH]c(=O)n([C@H](C)c3ccccn3)c12              9.8

Record COC[C@@H](C)n1c(C2CCOCC2)nc2cnc3cc(-c4c(C)noc4C)c(OC)cc3c21 , field CLint: 2.4

====

test: Volume of distribution at steady state in Wistar Han rat at 1 mg/kg/hr, iv measured upto 26 hrs by LC-MS/MS analysis; assay type: ADME, organism-based; details: in vivo, read-out: Vdss
measure-name: Vd

Record COC[C@@H](C)n1c(C2CCOCC2)nc2cnc3cc(-c4c(C)noc4C)c(OC)cc3c21 , field Vd: 2.2 L/kg

====

test: Passive permeability in MDCK cells; format: ADME, cell-based, Canis lupus familiaris; conditions: dog, read-out: permeability
measure-name: Papp (×10⁻⁶ cm/s)
Answers are plain numbers, in ×10⁻⁶ cm/s.

Record COC[C@@H](C)n1c(C2CCOCC2)nc2cnc3cc(-c4c(C)noc4C)c(OC)cc3c21 , field Papp: 34.6

====

target: Bromodomain-containing protein 4 (Homo sapiens, UniProt O60885); experiment: Inhibition of BRD4 in human PBMC assessed as reduction in LPS-induced IL-6 secretion incubated for 18 to 24 hrs by MSD assay
Please go through the items and note down their log10 of IC50.
log10 IC50, nM

Example entries and their recorded answers appear below.
> print(dat)
                                   compound  reported.result
1  COCC(C)n1c(=O)[nH]c2cnc3cc(-c4c(C)noc4C)c(OC)cc3c21 (racemic)             3.20
2  COc1cc2c(cc1-c1c(C)noc1C)ncc1[nH]c(=O)n(CC(C)C)c12             3.00
3  COc1cc2c(cc1-c1c(C)noc1C)ncc1nc(N(C)C)n(CC3CCOCC3)c12             1.60
4  CCc1nc2cnc3cc(-c4c(C)noc4C)c(OC)cc3c2n1Cc1ccccn1             2.20

Quick one: give me log10 of IC50 for each item below, same order please.
1. COc1cc2c(cc1-c1c(C)noc1C)ncc1nc(N)n(Cc3ccccn3)c12
2. COCCNc1nc2cnc3cc(-c4c(C)noc4C)c(OC)cc3c2n1[C@H](C)c1ccccn1
3. COc1cc2c(cc1-c1c(C)noc1C)ncc1[nH]c(=O)n(C3CCOCC3)c12
4. COc1cc2c(cc1-c1c(C)noc1C)ncc1[nH]c(=O)n(CCN(C)C)c12
5. COC[C@H](C)n1c(C2CCOCC2)nc2cnc3cc(-c4c(C)noc4C)c(OC)cc3c21

Solution:
[2.20, 1.40, 3.20, 3.20, 2.70]

====

experiment: Half life in Wistar Han rat at 1 mg/kg/hr, iv measured upto 26 hrs by LC-MS/MS analysis; type: ADME, organism-based; conditions: in vivo
measure-name: half-life (h)
One number for each entry, in h.

Record COC[C@@H](C)n1c(C2CCOCC2)nc2cnc3cc(-c4c(C)noc4C)c(OC)cc3c21 , field half-life: 1.4

====

experiment: Half life in CD1 mouse at 1 mg/kg/hr, iv measured upto 24 hrs by LC-MS/MS analysis; format: ADME, organism-based; conditions: in vivo
measure-name: half-life (h)
Give bare numbers, in h.

Record COC[C@@H](C)n1c(C2CCOCC2)nc2cnc3cc(-c4c(C)noc4C)c(OC)cc3c21 , field half-life: 1.2

====

assay: Unbound fraction in Wistar Han rat blood at 100 to 1000 ng/ml by LC-MS/MS-based rapid equilibrium dialysis method; type: ADME, tissue-based; settings: dose 100-1000 ng/ml
measure-name: fraction unbound
Answers are plain numbers.

Record COC[C@@H](C)n1c(C2CCOCC2)nc2cnc3cc(-c4c(C)noc4C)c(OC)cc3c21 , field fraction unbound: 0.16

====

Biological target: Cytochrome P450 1A2 (Homo sapiens, UniProt P05177)
Sequence (P05177 whole entry): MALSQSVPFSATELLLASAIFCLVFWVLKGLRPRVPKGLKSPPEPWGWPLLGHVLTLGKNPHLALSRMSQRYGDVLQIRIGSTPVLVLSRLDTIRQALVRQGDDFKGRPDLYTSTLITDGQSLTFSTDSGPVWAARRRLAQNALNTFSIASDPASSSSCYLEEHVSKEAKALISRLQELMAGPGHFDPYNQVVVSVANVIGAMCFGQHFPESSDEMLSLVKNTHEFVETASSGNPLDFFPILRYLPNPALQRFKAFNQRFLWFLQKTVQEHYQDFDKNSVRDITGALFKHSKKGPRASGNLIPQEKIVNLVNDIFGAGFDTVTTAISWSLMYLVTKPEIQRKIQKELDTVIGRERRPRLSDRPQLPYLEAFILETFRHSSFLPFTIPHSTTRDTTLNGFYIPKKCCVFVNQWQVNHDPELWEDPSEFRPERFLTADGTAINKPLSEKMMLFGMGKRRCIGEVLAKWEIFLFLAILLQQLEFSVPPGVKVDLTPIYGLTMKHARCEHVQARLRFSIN
Assay: Inhibition of recombinant human CYP1A2 expressed in Escherichia coli using ER as probe substrate incubated for 15 to 60 mins by fluorometric assay
pIC50: −log10 of the molar value.
measure-name: pIC50

// compound COC[C@@H](C)n1c(C2CCOCC2)nc2cnc3cc(-c4c(C)noc4C)c(OC)cc3c21 , assay Cytochrome P450 1A2 (Homo sapiens, UniProt P05177), pIC50 value: < 4.30
